concentration at 120 hpf listing for selected molecules.
test: Bioconcentration factors (BCF) of PFAS in zebrafish larvae; settings: zebrafish (Danio rerio), whole larvae, other: immersion in exposure medium, 5 µM

O=C(O)C(F)(F)C(F)(F)C(F)(F)F [compound 12, Perfluorobutanoic acid] :: 3.1 µM

# context switch: different molecule, same concentration at 120 hpf
concentration at 120 hpf for O=C(O)C(F)(F)C(F)(F)C(F)(F)C(F)(F)C(F)(F)C(F)(F)C(F)(F)F [compound 74, Perfluorooctanoic acid] ?
76 µM

====

spinal curvature, Mean listing for selected compounds.
tested on: zebrafish embryos; settings: 5μM through 120 hpf, malformation rate
# unit: % | format: bare number

// known answers, use as guide
FC(F)=C(F)C(F)(F)C(F)(F)C(F)(F)C(F)F :: 0.00
C=CC(F)(C(F)(F)F)C(F)(F)C(F)(F)F (stereo not drawn) :: 0.00
CC=CC(F)(F)C(F)(F)C(F)(F)F :: 0.00
O=C(O)C(F)(F)C(F)(F)C(F)(F)C(F)(F)C(F)(F)C(F)(F)C(F)(F)F :: 0.00
O=C(O)C(F)(F)C(F)(F)C(F)(F)C(F)(F)C(F)(F)C(F)(F)C(F)(F)C(F)(F)F :: 0.00
OCC(F)(F)C(F)(F)C(F)(F)C(F)(F)C(F)(F)C(F)(F)C(F)(F)C(F)(F)C(F)(F)C(F)(F)C(F)(F)F :: 0.00

# context switch: different compound, same spinal curvature, Mean
spinal curvature, Mean for O=S(=O)([O-])C(F)(F)C(F)(F)C(F)(F)C(F)(F)C(F)(F)C(F)(F)C(F)(F)C(F)(F)F.[K+] [compound 6, Potassium perfluorooctanesulfonate] ?
2.22

Cited source: paper PMC8294803
